The origin of these recorded values is patent US20160130327A1.

- target: revertant virus (AD169 CMV with the pentameric gH complex restored)
- assay.comment: cell-based or functional assay
This section presents binders with their documented Neutralization in MRC-5 cells EC50 values.
result.type: Neutralization in MRC-5 cells EC50 (µg/mL)

binder="324.4 (antibody, V domains shown, rabbit hybridoma mAb; also called clone 324.4) VH: QSVKESEGRLVTPGTPLTLTCTVSGFSPSSYNMGWVRQAPGEGLEWIGYISTSGNTFYASWAKGRFTISKTSTTVDLRITSPTTEDTATYFCARGSYVAYNAWDLWGPGTLVTISS VL: ELDLTQTASPVSAAVGGTVTINCQSSQSVYNNNYLSWYQQKPGQPPKLLIYGASTLASGVPSRFKGSGSGTQFTLTISEVQCDDAATYYCQGYYSGYIYAFGGGTEVVVK" result_type="Neutralization in MRC-5 cells EC50" value_units=µg/mL endpoint_result=0.21
binder="270.7 (antibody, V domains shown, rabbit hybridoma mAb; also called clone 270.7) VH: QSVEESGGRLVTPGTPLALTCTASRFSLSSNHMIWVRQAPGKGLEWIGYINYNNNPYYATWAKGRFTISRTSTTVALKITSPTTEDTATYFCARAAGNYYVGALNLWGPGTLVTISS VL: ELVMTQTPASVEVAVGGTVTIKCQASQSIGNLLAWYQQEPGQRPKLLIYDASTLASGVPSRFKGSGSGTEFTLTISGVQCADAATYYCQQGYMITNVENAFGGGTNVEIK" result_type="Neutralization in MRC-5 cells EC50" value_units=µg/mL endpoint_result=0.06
binder="276.10 (antibody, V domains shown, rabbit hybridoma mAb (not the humanized version); also called clone 276.10) VH: QSLEESGGDLVQPEGSLTLTCTASGFSFSGSYYMCWVRQAPGTGLEWIACIDGDLSGSAYYANWAKGRFTISGTSSTTVTLQVTSLTAADTATYFCAREGPVGVGSIYLGFDLWGPGTLVTISS VL: ELDLTQTPASVEVPVGGTVTIKCQASHNINTYLSWYQQKPGQPPKLLIYRASDLASGVSSRFSGSGSGTQFTLTISGVECADAATYYCQQGFNSLNVENVFGGGTEVVVK" result_type="Neutralization in MRC-5 cells EC50" value_units=µg/mL endpoint_result=100
binder="316.2 (antibody, V domains shown, rabbit hybridoma mAb; also called clone 316.2) VH: QSVKESEGRLVTPGTPLTLTCTASGFSLSSYHMIWVRQAPGKGLEWIGYINNNDNPYYATWAKGRFTISRTSTTVALKITSPTTKDTATYFCARAAGNYYVGALNLWGPGTLVTISS VL: ELVLTQTPASVEVAVGGTVTIKCQASQTIGNLLGWYQQKPGRPPKLLIYDASTLASGVPSRFKGSGSATEFTLTIRGVQCDDAATYYCQQGYMITNVENAFGGGTEVVVK" result_type="Neutralization in MRC-5 cells EC50" value_units=µg/mL endpoint_result=0.08
binder="210.4 (antibody, V domains shown, rabbit hybridoma mAb; also called clone 210.4) VH: QSVEESGGRLVTPGTPLTLTCTVSGFSLSTNAMSWVRQAPGKGLEWIGYIWSGGSTYYASWAKGRFAISKTSTTVDLKITSPTTEDTATYFCAKNGDNGQLDLWGQGTLVTVSS VL: ELVLTQTPSPVSAAVGGTVTINCQTSQSLYNNNFLSWYQQKPGQPPKLLIYKASTLESGVPSRFKGSGSGTQFTLTISGVQCDDAATYYCQGEFSCSSADCNAFGGGTEVVVK" result_type="Neutralization in MRC-5 cells EC50" value_units=µg/mL endpoint_result=100
